assay: RP, Thermo Scientific Acclaim RSLC 120 C18, 100 × 2.1 mm, 2.2 µm, 30 °C, 0.2 mL/min, estimated dead time 1.1 min; A: 90% water + 10% methanol + 0.01% formic acid + 5 mM ammonium formate, pH 3.61; B: methanol + 0.01% formic acid + 5 mM ammonium formate, pH 3.61; gradient (min/%B) 0/1 1/1 2/39 13/99.9 15/99.9 15.1/1 20.1/1; conditions: stereoisomer not certain
Kindly supply the reported LC retention time values for the records listed here.
Report the value in min with no unit label.

If you can, please state the reported LC retention time value of CCC1OC(=O)C(C)C(OC2CC(C)(OC)C(O)C(C)O2)C(C)C(OC2OC(C)CC(N(C)C)C2O)C(C)(O)CC(C)C(=O)C(C)C(O)C1(C)O (centres undefined) [Erythromycin] .
8

Suppose we examine the compound CC(=O)OC1(C(C)=O)CCC2C3C=C(C)C4=CC(=O)CCC4(C)C3CCC21C (centres undefined) [Megestrol-17-acetate] ; what LC retention time value has been reported?
10.9

I am curious: what LC retention time value has been reported for CNC(C)Cc1ccccc1 (centres undefined) [Amphetamine-Methyl (methamphetamine)] ?
4.21

Quick one: LC retention time for CC12CCC(=O)C=C1CCC1C2C(=O)CC2(C)C(O)CCC12 (centres undefined) [11-Ketotestosterone] ?
7.9

---

experiment: RP, Thermo Scientific Acclaim RSLC 120 C18, 100 × 2.1 mm, 2.2 µm, 30 °C, 0.2 mL/min, estimated dead time 1.1 min; A: 90% water + 10% methanol + 0.01% formic acid + 5 mM ammonium formate, pH 3.61; B: methanol + 0.01% formic acid + 5 mM ammonium formate, pH 3.61; gradient (min/%B) 0/1 1/1 2/39 13/99.9 15/99.9 15.1/1 20.1/1; settings: stereoisomer not certain
Label Y when LC retention time is at or above 7 min; anything below gets N.

Threshold query (LC retention time >= 7 min) on `Cc1occc1C(=O)Nc1ccccc1`
Y

Decide: LC retention time of Nc1ncnc2c1ncn2C1OC(CO)C(O)C1O (stereo not given) >= 7 min?
N

Decide: is the reported value of LC retention time for CCOP(=O)(SC(C)CC)SC(C)CC (stereo not given) equal to or greater than 7 min?
Y

Textbook exercise: given the entry `CCC(CN(C)C)(CN(C)C)OC(=O)c1ccccc1` , state whether its LC retention time is greater than or equal to 7 min.
N

Record `CC(C)[N+](C)(CCOC(=O)C1c2ccccc2Oc2ccccc21)C(C)C` ; criterion: LC retention time no lower than 7 min. Met?
Y

---

I'd be grateful if you could share measured LC retention time for these entries.
experiment: RP, Thermo Scientific Acclaim RSLC 120 C18, 100 × 2.1 mm, 2.2 µm, 30 °C, 0.2 mL/min, estimated dead time 1.1 min; A: 90% water + 10% methanol + 0.01% formic acid + 5 mM ammonium formate, pH 3.61; B: methanol + 0.01% formic acid + 5 mM ammonium formate, pH 3.61; gradient (min/%B) 0/1 1/1 2/39 13/99.9 15/99.9 15.1/1 20.1/1; conditions: stereoisomer not certain
Give the value in min but do not write min after it.

What value of LC retention time has been reported for the following compound? CCN(CC)CCCOC(=O)C1(c2ccccc2)CC2CCC1C2 (stereo not drawn)
8.54

// lookup LC retention time for CC12CC1(C)C(=O)N(c1cc(Cl)cc(Cl)c1)C2=O (stereo not drawn)
10.2

Please report the recorded LC retention time for CNC(C)C(=O)c1cccc(F)c1 (stereo not drawn) .
3.94

Look at this compound and give its reported LC retention time. CCC(CO)NC(=O)C1C=C2c3cccc4[nH]cc(c34)CC2N(C)C1 (stereo not drawn)
4.34

Item `CNC(=O)Oc1cccc2ccccc12` has what recorded LC retention time?
7.46

Sample `CCCCCn1cc(C(=O)c2cccc3ccccc23)c2c(O)cccc21` — what was its LC retention time?
12.5

// returns reported LC retention time for input `CCCN(CCC)c1c([N+](=O)[O-])cc(C(C)C)cc1[N+](=O)[O-]`
13.2

Reported LC retention time for N#Cc1nn(-c2c(Cl)cc(C(F)(F)F)cc2Cl)c(N)c1SC(F)(F)F [Fipronil-sulfide] : what is it?
10.8

Suppose we examine the compound `CCCCC1=NC2(CCCC2)C(=O)N1Cc1ccc(-c2ccccc2-c2nn[nH]n2)cc1` ; what LC retention time value has been reported?
9.44

// lookup LC retention time for CC(N)Cc1ccc2c(c1)OCO2 (stereo not drawn)
4.19

What value of LC retention time has been recorded for this entry: COc1cc2nc(N3CCN(C(=O)C4CCCO4)CC3)nc(N)c2cc1OC (stereo not drawn)
4.92

State the recorded LC retention time for this entry: CN1C2CCC1CC(OC(=O)C(CO)c1ccccc1)C2 (stereo not drawn)
4.36

Give its LC retention time value. Item: COc1ccc(C(C[N+](C)(C)[O-])C2(O)CCCCC2)cc1 (stereo not drawn) [Venlafaxine-N-oxide]
6.94

Any idea what LC retention time was measured for CCC1(C2OC(C3OC(O)(CO)C(C)CC3C)CC2C)CCC(C2(C)CCC3(CC(O)C(C)C(C(C)C(OC)C(C)C(=O)O)O3)O2)O1 (stereo not drawn) ?
13.8

Looking for the measured LC retention time of `CCCN(CCC)C(=O)SCc1ccccc1` , can you help?
11.9

Given `COC(=O)Nc1nc2ccc(C(=O)c3ccccc3)cc2[nH]1` , state its recorded LC retention time.
8.25

Can you look up the measured LC retention time of CC(CS)C(=O)N1CCCC1C(=O)O (stereo not drawn) for me?
4.59

Can you share its LC retention time? I mean this compound: CC=C1CC(C)C(O)(CO)C(=O)OCC2=CC[N+]3([O-])CCC(OC1=O)C23 (stereo not drawn) [Retrorsine-N-oxide]
4.33

Quick check: LC retention time of `CCN(CC)CCCN(c1ccccc1)C1Cc2ccccc2C1` ?
8.85

Form field: reported LC retention time of `CNC(=O)ON=CC(C)(C)SC`
6.17

I'd like to know its LC retention time. The compound in question is CNC(C)C1CCC(N)C(OC2C(N)CC(N)C(OC3OCC(C)(O)C(NC)C3O)C2O)O1 (stereo not drawn)
11.6

I am curious: what LC retention time value has been reported for `NCC1(CC(=O)O)CCCCC1` ?
3.78

What does the data say about its LC retention time? Entry: C#CCOC(=O)C(C)Oc1ccc(Oc2ncc(Cl)cc2F)cc1 (stereo not drawn)
10.7

Value lookup for LC retention time; key = C#CC1(OC(C)=O)CCC2C3CCC4=CC(=NO)CCC4C3CCC21CC (stereo not drawn) [Norgestimate]
11.9

What value of measured LC retention time is listed for COc1ccc2cc(C(C)C(=O)O)ccc2c1 (stereo not drawn) ?
8.99

Entry CC1(C)CCC(=Cc2ccc(Cl)cc2)C1(O)Cn1cncn1 (stereo not drawn) : reported LC retention time = ?
10.1

Requested read-out: LC retention time. Entry: COc1ccc(C(CN(C)C)C2(O)CCCCC2)cc1 (stereo not drawn)
6.14

# get_value(readout='LC retention time', item= CC(=O)OC1C(C)OC(n2cc(F)c(N)nc2=O)C1OC(C)=O (stereo not drawn) )
5.06

Any idea what LC retention time was measured for `CC(C)N=C(N)N=C(N)Nc1ccc(Cl)cc1` ?
6.98

Entry under review: `CCCCn1cc(C(=O)c2cccc3ccccc23)c2ccccc21` . Reported LC retention time?
11.9

# lookup: LC retention time of CCN(CC)C(=O)Nc1ccc(OCC(O)CNC(C)(C)C)c(C(C)=O)c1 (stereo not drawn)
5.24

For the compound `Nc1nc(=S)c2[nH]cnc2[nH]1` , what LC retention time is on record?
2.53

Query (compound): CN1CCC23c4c5ccc(O)c4OC2C(O)CCC3C1C5 (stereo not drawn) [Morphine-Dihydro] ; field requested: LC retention time
2.66

Name the reported LC retention time value associated with the compound COP(=O)(NC(C)=O)SC (stereo not drawn) [Acephate]
3.11

Entry COc1ccc2c3c1OC1C(=O)CCC4(O)C(C2)N(C)CCC314 (stereo not drawn) has what LC retention time?
3.61

So what's the measured LC retention time for this one? `CCC(=C(c1ccccc1)c1ccc(OCCN(C)C)cc1)c1ccccc1`
11

For the compound CCOC(=O)C(C)(C)Oc1ccc(Cl)cc1 [Clofibrate] , what LC retention time is on record?
11

Item `CN(C)c1nc(=O)n(C2CCCCC2)c(=O)n1C` has what recorded LC retention time?
7.09
